system: P388 leukemia ip, CD2F1 mice, survival T/C; test: NCI In Vivo Anticancer Drug Screen. Data for tumor model P388 Leukemia (intraperitoneal) in CD2F1 (CDF1) mice; details: endpoint: median survival time; dose: 200.0 mg/kg/injection; schedule: Q01DX009 (ip); vehicle: Klucel (hydroxypropylcellulose) (HPC); higher = longer survival
Inconclusive results and toxic doses are left out.
Here, each record is paired with measured T/C data.

Challenge: Sample CN(C)c1ccc2c(Cl)cc(Cl)nc2c1 — what was its T/C?
Response given: 103 % of control

Challenge: Could you tell me which T/C is on file for COc1ccc(OC)c(N2C(=O)C(=O)C(C(C)=O)C2=O)c1 (configuration not stated) ?
Response given: 105 % of control

Challenge: # T/C lookup, item S=c1[nH]ccn1-c1ccccc1
Response given: 95 % of control

Challenge: Please look up its T/C: C#CC(CC)(CC)N1CC(OC(=O)NCC=C)C1
Response given: 95 % of control
